- system.name: dipeptidyl peptidase IV (Homo sapiens)
- assay.procedure: biochemical
- test.settings: values without "*" = IC-50; read-out: IC50DPIV
pIC50: −log10 of the molar value.
The molecules listed here are annotated with their pIC50.
observable: pIC50

>>> print(df.to_string())
                                   molecule  observable  numeric_readout
0  N#Cc1ccc(/C=N/NC(=O)c2cc([N+](=O)[O-])ccc2O)cc1       pIC50             4.09
1  COc1ccc(-c2ccc(C3Nc4ccc5ccccc5c4C4=C3C(=O)CC(C)(C)C4)o2)cc1Cl (centres unmarked)       pIC50             4.06
2       O=C(N/N=C/c1cccc(I)c1)c1cc(Br)ccc1O       pIC50             4.44
3  C=CCOC(=O)c1cc(-c2ccc(/C=C3/C(=O)N(CCCO)C(=O)C(C#N)=C3C)o2)ccc1Cl [D4.054]       pIC50             4.35
4  O=C1NC23NC(=O)NC2(N1)c1ccccc1-c1ccccc13 (centres unmarked) [D4.053]       pIC50             4.37

---

- system.name: dipeptidyl peptidase IV (Homo sapiens, UniProt P27487)
- Sequence (P27487 whole entry, species assumed): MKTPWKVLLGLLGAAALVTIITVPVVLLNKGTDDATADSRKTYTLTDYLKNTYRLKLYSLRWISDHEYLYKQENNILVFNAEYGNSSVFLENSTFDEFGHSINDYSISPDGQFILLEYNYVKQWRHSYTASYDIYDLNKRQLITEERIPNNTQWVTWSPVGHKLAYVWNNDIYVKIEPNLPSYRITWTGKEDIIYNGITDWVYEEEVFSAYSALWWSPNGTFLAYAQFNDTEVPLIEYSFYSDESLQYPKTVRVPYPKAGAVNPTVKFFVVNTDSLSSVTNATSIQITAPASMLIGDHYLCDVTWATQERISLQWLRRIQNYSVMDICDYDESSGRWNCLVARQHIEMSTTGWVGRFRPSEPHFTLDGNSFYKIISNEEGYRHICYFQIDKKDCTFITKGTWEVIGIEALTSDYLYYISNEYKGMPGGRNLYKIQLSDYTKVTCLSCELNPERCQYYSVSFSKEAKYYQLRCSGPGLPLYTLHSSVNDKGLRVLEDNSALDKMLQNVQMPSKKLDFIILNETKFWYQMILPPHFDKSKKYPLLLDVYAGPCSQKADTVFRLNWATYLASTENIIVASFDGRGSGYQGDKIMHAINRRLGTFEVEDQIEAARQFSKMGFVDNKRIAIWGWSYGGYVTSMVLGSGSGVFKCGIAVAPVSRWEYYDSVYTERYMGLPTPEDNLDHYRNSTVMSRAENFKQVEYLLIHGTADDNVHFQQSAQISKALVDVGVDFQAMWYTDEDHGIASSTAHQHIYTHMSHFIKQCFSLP
- assay.procedure: biochemical
- test.settings: values without "*" = IC-50; read-out: IC50DPIV
pIC50: −log10 of the molar value.
The molecules listed here are annotated with their pIC50.
observable: pIC50

In [3]: df
Out[3]:
                                   molecule  observable  numeric_readout
0  Cc1ccc(S(=O)(=O)CNC(=S)c2ccc3ccccc3c2)cc1 [D9.002]       pIC50             4.84
1  O=C(NNC1=C(Cl)C(=O)C(Cl)(Cl)C1=O)c1ccccc1       pIC50             4.58
2                COc1cc2c(cc1OC)CC(C)(C)NC2       pIC50             5.22
3  O=C(N/N=C/c1cc(Br)c(O)c(Br)c1O)/C(=C\c1ccc2c(c1)OCO2)NC(=O)c1ccccc1 [D12.032]       pIC50             4.22
4  CC(=O)Oc1cccc(N2C(=O)C3C(C2=O)C2(C)C=CC3(C)O2)c1 (stereo not drawn)       pIC50             4.18
5  O=C(N/N=C\c1ccc(OCc2ccccc2Cl)cc1)c1ccc2c(c1)OCO2       pIC50             4.21
6  CCOC(=O)c1c(C)oc2c1c1c(c3ccccc32)OCN(C2CCS(=O)(=O)C2)C1 (stereo not drawn) [D12.017]       pIC50             4.47
7  CCOC(=O)c1c(C)nn(-c2ccc(N3C(=O)CSCC3=O)cc2)c1C       pIC50             4.43
8  COc1c(O)ccc(/C=N/NC(=O)COc2c(Br)cc(Br)cc2Br)c1[N+](=O)[O-]       pIC50             4.26

---

- system.name: dipeptidyl peptidase IV (Homo sapiens)
- assay.procedure: biochemical
- test.settings: values without "*" = IC-50; read-out: IC50DPIV
# TRUE = IC50 below 50 µM (exclusive); FALSE = IC50 at/above 50 µM

>>> print(df.to_string())
                                   compound                             system_name  classification
0  CCOc1cc(/C=N/NC(=O)c2cc(O)c(O)c(O)c2)ccc1O [D10.034]  dipeptidyl peptidase IV (Homo sapiens)            TRUE
1  N#CC1=C(N)C(C#N)(C#N)C(c2ccccc2)C2CNCC=C12 (stereo not drawn) [D3.056]  dipeptidyl peptidase IV (Homo sapiens)            TRUE
2  CC1=C(C#N)C(=O)N(CC(C)O)C(=O)/C1=C/c1ccc(-c2ccc(Br)cc2)o1 (stereo not drawn) [D4.080]  dipeptidyl peptidase IV (Homo sapiens)           FALSE
3  O=C(N/N=C/c1ccc(OC(=O)c2ccco2)c([N+](=O)[O-])c1)/C(=C\c1cccs1)NC(=O)c1ccccc1 [D10.028]  dipeptidyl peptidase IV (Homo sapiens)            TRUE
4  CCOC(=O)c1n[nH]c2c1CN(c1ccc([N+](=O)[O-])cc1)C2=O [D12.031]  dipeptidyl peptidase IV (Homo sapiens)           FALSE
5  COc1c(OC(C)=O)ccc(/C=N/NC(=O)CNc2cccc(C)c2)c1[N+](=O)[O-] [D10.019]  dipeptidyl peptidase IV (Homo sapiens)            TRUE
6  Nc1nonc1-n1nnc(C(=O)NN=C2c3ccccc3-c3ccccc32)c1-c1ccccc1 [D4.013]  dipeptidyl peptidase IV (Homo sapiens)            TRUE
7  C/C(=N\NC(=O)c1cc(C)n[nH]1)c1ccc(-c2ccccc2)cc1 [D10.047]  dipeptidyl peptidase IV (Homo sapiens)            TRUE
8  Cc1ccc(/C=N/NC(=O)c2cccc(I)c2)o1 [D6.084]  dipeptidyl peptidase IV (Homo sapiens)           FALSE

---

- system.name: dipeptidyl peptidase IV (Homo sapiens, UniProt P27487)
- assay.procedure: biochemical
- test.settings: values marked with "*" are ID50 values; read-out: IC50DPIV, values marked with "*" = ID50
pIC50: −log10 of the molar value.
Hi, to clarify the labels: 1 covers pIC50 from 4 upward, -1 covers anything below 4.

>>> df
                                   compound  classification
0  COc1ccc(OCC(=O)N/N=C/c2ccc(OC)c(Br)c2)c(Br)c1              -1
1  O=C(N/N=C/c1cccc(OC(=O)c2ccccc2Cl)c1)/C(=C\c1ccc2c(c1)OCO2)NC(=O)c1ccccc1              -1
2  CCOC(=O)c1c(CNC(=O)CN2CCN(c3nc4c([nH]3)c(=O)[nH]c(=O)n4C)CC2)[nH]c2ccc(F)cc12               1
3             CCC(O)(CC)C(=O)NNc1ccc(C)cc1C               1
4  COc1ccc(N(C(C)C(=O)N/N=C/c2ccc(Cl)cc2Cl)S(C)(=O)=O)cc1 (centres unmarked) [D10.003]               1
5  CC(=O)Nc1ccc(Nc2ccc(N3C(=O)CCCC3=O)cc2[N+](=O)[O-])cc1               1

---

The molecules listed here are annotated with their pIC50.
- system.name: dipeptidyl peptidase IV (Homo sapiens)
- assay.procedure: biochemical
- test.settings: values without "*" = IC-50; read-out: IC50DPIV
pIC50: −log10 of the molar value.
observable: pIC50

>>> print(df.to_string())
                                   molecule  observable  numeric_readout
0  CC(N)C(CC(=O)O)c1ccccc1 (stereo not drawn) [D13.003]       pIC50             4.42
1  COc1ccc(C(=O)CS/C2=N/CCCCCC2)cc1 [D1.004]       pIC50             4.44
2  CCCn1c(N2CCN(CC(=O)c3c(C)n(C)c4ccccc34)CC2)nc2c1c(=O)[nH]c(=O)n2C [D5.023]       pIC50             4.51
3  Cn1c(=O)[nH]c(=O)c2c1nc(NCCO)n2Cc1ccccc1Cl [D3.058]       pIC50             4.36
4  Cc1ccc(C(=O)N/C(=C\c2ccco2)C(=O)N2CCOCC2)cc1C [D5.033]       pIC50             4.33
5  COc1cc(Br)c(OCC(=O)N/N=C/c2cc(Br)c(O)c(O)c2Br)c(Br)c1 [D10.046]       pIC50             4.53
6  Cc1ccc(C(=O)N/C(=C\c2ccco2)C(C)N2CCOCC2)cc1C (stereo not drawn) [D6.067]       pIC50             4.33
7  CCCC(=O)O/N=C(/C)c1cc2ccccc2oc1=O [D11.007]       pIC50             4.72
8  O=C(N/N=C/c1cc(Br)ccc1OC(=O)c1ccco1)/C(=C\c1cccs1)NC(=O)c1ccccc1 [D10.042]       pIC50             4.62

---

The compounds listed here are annotated with their IC50.
- system.name: dipeptidyl peptidase IV (Homo sapiens, UniProt P27487)
- assay.procedure: biochemical
- test.settings: values without "*" = IC-50; read-out: IC50DPIV
observable: IC50 (µM)

>>> print(df.to_string())
                                   compound  observable  numeric_readout
0  O=C(CNc1ccc2ccccc2c1)N/N=C1/C(=O)Nc2ccc([N+](=O)[O-])cc21        IC50             18.2
1  CC(C)c1ccc2c(c1)[C@@H]1C=CC[C@@H]1[C@H](c1ccc(C(=O)O)cc1)N2        IC50             46.4
2      CCOc1cc(/C=N/NC(=O)c2cc(C)oc2C)ccc1O        IC50             16.2
3  N#Cc1c(NC(=O)C(C(F)(F)F)C(F)(F)F)sc2c1CCCC2 [D3.049]        IC50             39.5
4  COc1ccc(OCC(=O)N/N=C/c2c(Br)cc(Br)c(O)c2Br)cc1        IC50              113

These entries and their values trace back to patent US20070037785A1.
